# ASSAY_EXPLANATION: self-splicing fitness, log relative to wild type (ln ratio); higher = more splicing; Tetrahymena group I intron in knt gene, E. coli kanamycin selection, DiMSum; sequences stand for … in CUCUCU…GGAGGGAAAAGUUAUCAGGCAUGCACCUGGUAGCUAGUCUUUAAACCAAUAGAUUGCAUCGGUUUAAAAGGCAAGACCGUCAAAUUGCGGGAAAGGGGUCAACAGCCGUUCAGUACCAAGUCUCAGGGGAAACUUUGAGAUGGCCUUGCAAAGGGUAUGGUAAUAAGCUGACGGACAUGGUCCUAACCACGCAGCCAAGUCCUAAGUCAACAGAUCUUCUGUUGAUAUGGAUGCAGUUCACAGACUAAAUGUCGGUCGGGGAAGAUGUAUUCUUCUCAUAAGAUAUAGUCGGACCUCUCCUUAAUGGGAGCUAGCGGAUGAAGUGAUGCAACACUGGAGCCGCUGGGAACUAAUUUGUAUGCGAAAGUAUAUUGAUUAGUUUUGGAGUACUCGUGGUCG;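 further: selection with 25 µg/mL kanamycin versus none on LB agar overnight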
# MEASUREMENT_CONTEXT: 30 °C
Each record's class is read off its self-splicing fitness (ln) using these ranges: band A (below -3), band B (-3 to below -1), band C (-1 or more)

In [3]: df
Out[3]:
        ordered_residues  label_value
 0  UAAUAGCAAUAUUACGUCUA       band C
 1  GCCGAGCAAUAUUACGGCAG       band A
 2  UAUGAGCAAUAUUACGCGGC       band A
 3  UCUAAGCAAUAUUACGAUUA       band B
 4  GGCCAGCAAUAUUACGAGGC       band B
 5  AGUCAGCAAUAUUACGAUGU       band C
 6  CAUGAGCAAUAUUACGGAAG       band B
 7  AUUCAGCAAUAUUACGCUAA       band C
 8  UAGUAGCAAUAUUACGACAU       band B
 9  GAAUAGCAAUAUUACGUACG       band B
10  CGCGAGCAAUAUUACGAUUG       band B
11  GGUGAGCAAUAUUACGGGAC       band A
12  AUUGAGCAAUAUUACGUUAA       band A
13  CCGAAGCAAUAUUACGACUG       band B
14  CGAAAGCAAUAUUACGACUA       band B
15  UUAGAGCAAUAUUACGUAUA       band A
16  UGGCAGCAAUAUUACGGAGG       band B
17  UAGCAGCAAUAUUACGUAGA       band B
18  GCUGAGCAAUAUUACGACCA       band A
19  CCCGAGCAAUAUUACGCAUC       band B
20  CCUAAGCAAUAUUACGAGUG       band C
21  GUUGAGCAAUAUUACGUAGG       band A
22  CUAGAGCAAUAUUACGACCG       band C
23  UGCCAGCAAUAUUACGGGCA       band A
24  CUAAAGCAAUAUUACGUUGA       band A
25  UUUCAGCAAUAUUACGUGUA       band B
26  ACAGAGCAAUAUUACGGUCU       band A
27  GGGGAGCAAUAUUACGGCUA       band C
28  GCCCAGCAAUAUUACGCUAA       band C
29  GUGUAGCAAUAUUACGAAGC       band B
30  CAUAAGCAAUAUUACGGUGA       band A
31  UGCCAGCAAUAUUACGUCGU       band B
32  AAAAAGCAAUAUUACGAAUA       band B
33  GUCCAGCAAUAUUACGAGGU       band B
34  AAAAAGCAAUAUUACGAGUC       band A
35  UCACAGCAAUAUUACGAAGU       band B
36  CAACAGCAAUAUUACGCAUA       band B
37  CGAGAGCAAUAUUACGUCAU       band A
38  UCUGAGCAAUAUUACGGACU       band B

* * *

# ASSAY_EXPLANATION: self-splicing fitness, log relative to wild type (ln ratio); higher = more splicing; Tetrahymena group I intron in knt gene, E. coli kanamycin selection, DiMSum; sequences stand for … in CUCUCU…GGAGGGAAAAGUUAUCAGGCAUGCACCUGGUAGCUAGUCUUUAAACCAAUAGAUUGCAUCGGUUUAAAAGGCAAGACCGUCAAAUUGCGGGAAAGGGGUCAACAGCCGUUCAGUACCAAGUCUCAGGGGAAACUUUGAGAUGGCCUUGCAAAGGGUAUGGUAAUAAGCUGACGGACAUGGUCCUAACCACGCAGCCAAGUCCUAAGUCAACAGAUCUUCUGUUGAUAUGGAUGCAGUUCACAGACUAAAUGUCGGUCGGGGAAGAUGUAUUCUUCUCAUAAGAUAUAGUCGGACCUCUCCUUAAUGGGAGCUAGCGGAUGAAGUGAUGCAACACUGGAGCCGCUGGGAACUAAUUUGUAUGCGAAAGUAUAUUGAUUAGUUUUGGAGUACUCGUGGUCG
# MEASUREMENT_CONTEXT: 30 °C
Lab note: anything with self-splicing fitness (ln) at or over -3 counts as MET; the rest go in NOT MET.

>>> df
        ordered_residues  label_value
 0  UAGGAGCAAUAUUACGCGCG          MET
 1  UGAGAGCAAUAUUACGACAA          MET
 2  AGAUAGCAAUAUUACGAAAA          MET
 3  GCAGAGCAAUAUUACGGGUC      NOT MET
 4  UGUCAGCAAUAUUACGAAGU      NOT MET
 5  ACUCAGCAAUAUUACGGGUG          MET
 6  UAAAAGCAAUAUUACGUCAU      NOT MET
 7  AUUUAGCAAUAUUACGGAAU          MET
 8  ACGGAGCAAUAUUACGUAUC          MET
 9  UCCGAGCAAUAUUACGCGGC      NOT MET
10  GACUAGCAAUAUUACGUAGC          MET
11  CUAUAGCAAUAUUACGAUAA          MET
12  CAGCAGCAAUAUUACGAGAG          MET
13  GGAUAGCAAUAUUACGUAGA          MET
14  GGCAAGCAAUAUUACGCAUU          MET
15  UCCUAGCAAUAUUACGUUGA          MET
16  UAGAAGCAAUAUUACGAAAA          MET
17  CACUAGCAAUAUUACGGCGA          MET
18  AGCGAGCAAUAUUACGGUAU      NOT MET
19  UAGUAGCAAUAUUACGAGUU      NOT MET
20  GCGCAGCAAUAUUACGAUUG          MET
21  AGAGAGCAAUAUUACGACGU          MET
22  CGGCAGCAAUAUUACGGGCG          MET
23  AUAGAGCAAUAUUACGUCCG          MET
24  ACGAAGCAAUAUUACGUUUA          MET
25  UAACAGCAAUAUUACGACGU          MET
26  GGAGAGCAAUAUUACGUUAU      NOT MET
27  AGCAAGCAAUAUUACGUAAG          MET
28  CGUAAGCAAUAUUACGUCUG          MET
29  AAAAAGCAAUAUUACGUGUG          MET
30  GGCUAGCAAUAUUACGUUCA          MET
31  ACAUAGCAAUAUUACGGUAG      NOT MET
32  CCGGAGCAAUAUUACGGUCC          MET
33  AGGUAGCAAUAUUACGCAUG          MET
34  GCCAAGCAAUAUUACGUGGA          MET
35  AAGCAGCAAUAUUACGGCCG          MET
36  CGCCAGCAAUAUUACGGGCC      NOT MET
37  AACAAGCAAUAUUACGAUGA          MET
38  CCUCAGCAAUAUUACGGUAU      NOT MET
39  AGCGAGCAAUAUUACGGCUU          MET
40  GCUGAGCAAUAUUACGCGUC          MET
41  GGCAAGCAAUAUUACGGUCG          MET
42  ACAAAGCAAUAUUACGAUUA          MET

* * *

# ASSAY_EXPLANATION: self-splicing fitness, log relative to wild type (ln ratio); higher = more splicing; Tetrahymena group I intron in knt gene, E. coli kanamycin selection, DiMSum; sequences stand for … in CUCUCU…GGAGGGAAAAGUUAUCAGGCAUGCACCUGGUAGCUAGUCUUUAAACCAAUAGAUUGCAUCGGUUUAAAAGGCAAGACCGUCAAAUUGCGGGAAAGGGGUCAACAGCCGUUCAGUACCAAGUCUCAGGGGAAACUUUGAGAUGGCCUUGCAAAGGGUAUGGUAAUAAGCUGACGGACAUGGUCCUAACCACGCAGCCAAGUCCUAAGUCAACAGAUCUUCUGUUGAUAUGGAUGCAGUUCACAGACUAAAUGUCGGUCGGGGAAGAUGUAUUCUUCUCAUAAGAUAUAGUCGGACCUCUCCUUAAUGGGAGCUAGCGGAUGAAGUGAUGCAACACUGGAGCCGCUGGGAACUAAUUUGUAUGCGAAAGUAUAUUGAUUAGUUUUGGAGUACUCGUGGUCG
# MEASUREMENT_CONTEXT: 37 °C
RESULT_TYPE: self-splicing fitness (ln)

In [3]: df
Out[3]:
        ordered_residues  test_value
 0  GUGUAGCAAUAUUACGAAGC      -0.684
 1  CGGUAGCAAUAUUACGUAGC       -3.13
 2  AGGAAGCAAUAUUACGUGCG       -1.04
 3  CGCGAGCAAUAUUACGUCAG       -1.27
 4  CGCGAGCAAUAUUACGACUA       -2.64
 5  UGAGAGCAAUAUUACGCAAG       -2.74
 6  GCAGAGCAAUAUUACGGUAC       -1.79
 7  CCCUAGCAAUAUUACGAUGC       -2.22
 8  CUUAAGCAAUAUUACGACUG      -0.589
 9  CACGAGCAAUAUUACGCGCC       -0.83
10  CAGAAGCAAUAUUACGAGUU       -2.47
11  UUUGAGCAAUAUUACGAGCG       -1.88
12  AUGGAGCAAUAUUACGCAUU       -1.84
13  AACCAGCAAUAUUACGUACG      -0.431
14  AAUCAGCAAUAUUACGCGAA       0.278
15  CUCGAGCAAUAUUACGUAGA       -1.64
16  AGGCAGCAAUAUUACGCACG      -0.342
17  UACAAGCAAUAUUACGUUUG       -2.57
18  CUUAAGCAAUAUUACGGGUC       -2.98
19  GCUCAGCAAUAUUACGGAAC      0.0247
20  UAUUAGCAAUAUUACGCGCA       0.163
21  AAAAAGCAAUAUUACGUAAU      -0.916
22  UAACAGCAAUAUUACGCAUA     -0.0703
23  AUCAAGCAAUAUUACGAACA      -0.578
24  AGUAAGCAAUAUUACGGGUC       -2.92
25  UUUGAGCAAUAUUACGCCUC      -0.879
26  GUAAAGCAAUAUUACGGGGC       -2.29
27  ACUAAGCAAUAUUACGCAGC      -0.621
28  GUAAAGCAAUAUUACGGUCU      0.0323
29  GGCAAGCAAUAUUACGCAUU       0.591
30  CCACAGCAAUAUUACGCGCA       -3.06
